System: KB-3-1
protocol.summary: Cytotoxic Profiling of Annotated Libraries Using Quantitative High-Throughput Screening (AID 1296008); also: nearly all actives have a fitted effect of over 60% in size
test.context: Five cell lines viability, CellTiter-Glo ATP luminescence, 48-72 h
Inconclusive results are not listed. Activity calls are given as the source filed them. Calls follow the shape of the dose curve; as a rule, active = well fitted inhibition curve with a large enough effect; inconclusive = small, poorly fitted or top-dose-only effect; inactive = flat fitted curve, though single readings scatter.
Lab note: assign the record to one of Yes = active, No = inactive

[
  {
    "molecule": "COC1C(O)C(OC2CCC3(C=O)C(CCC4C3CCC3(C)C(C5=CC(=O)OC5)CCC43O)C2)OC(C)C1OC1OC(CO)C(O)C(O)C1O (stereo unspecified)",
    "class.name": "Yes"
  },
  {
    "molecule": "[H+].[H+].[Hg+2].[O-]B([O-])[O-].[c-]1ccccc1",
    "class.name": "Yes"
  },
  {
    "molecule": "C/C=C(\\C)C(=O)OC1CC2C(CC=C3CC(OC4CC(OC)C(OC5CC(OC)C(OC6OC(C)C(OC7OC(CO)C(O)C(O)C7O)C(OC)C6O)C(C)O5)C(C)O4)CCC32C)C2(O)CCC(C(C)=O)C12C (stereo unspecified)",
    "class.name": "No"
  },
  {
    "molecule": "CCc1c(C(=O)C(N)=O)c2c(OCC(=O)OC)cccc2n1Cc1ccccc1",
    "class.name": "No"
  },
  {
    "molecule": "CN1C(=O)N(c2ccc(C#N)c(C(F)(F)F)c2)C(=O)[C@]1(CO)c1ccccc1",
    "class.name": "No"
  }
]

Consider the additional molecule presented here.
Recorded test call requested for "CC(=O)O[C@H]1C[C@H](O[C@H]2[C@@H](O)C[C@H](O[C@H]3[C@@H](O)C[C@H](O[C@H]4CC[C@@]5(C)[C@H](CC[C@@H]6[C@@H]5C[C@@H](O)[C@]5(C)[C@@H](C7=CC(=O)OC7)CC[C@]65O)C4)O[C@@H]3C)O[C@@H]2C)O[C@H](C)[C@H]1O[C@@H]1O[C@H](CO)[C@@H](O)[C@H](O)[C@H]1O" Yes

* * *

protocol.summary: Cell Viability - LYMP2-021 (AID 974);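 also: compound exposure lasts 24 hours at 37 °C; nearly all actives have a fitted effect of over 55% in size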
test.context: LYMP2-021 lymphoblastoid cells viability; series mostly up to 92.2 µM
Inconclusive results are not listed. Activity calls are given as the source filed them. Calls follow the shape of the dose curve; as a rule, active = well fitted cell-killing curve with a large enough effect; inconclusive = small, poorly fitted or top-dose-only effect; inactive = flat fitted curve, though single readings scatter.
Lab note: assign the record to one of 1 (yes) for active, 0 (no) for inactive

Some entries whose results are on file:
[
  {
    "molecule": "C[C@]12CCC(=O)C[C@@H]1CC[C@@H]1[C@@H]2CC[C@]2(C)[C@@H](O)CC[C@@H]12",
    "class.name": "0 (no)"
  },
  {
    "molecule": "O=C(O)C(Cl)(Cl)Cl",
    "class.name": "0 (no)"
  },
  {
    "molecule": "CC(C)CCON=O",
    "class.name": "0 (no)"
  },
  {
    "molecule": "Clc1ccccc1Cl",
    "class.name": "0 (no)"
  },
  {
    "molecule": "S=C=S",
    "class.name": "0 (no)"
  },
  {
    "molecule": "COC1=CC(=O)O[C@@H](/C=C/c2ccccc2)C1",
    "class.name": "0 (no)"
  },
  {
    "molecule": "CCOC(=O)c1ccccc1C(=O)OCC",
    "class.name": "0 (no)"
  },
  {
    "molecule": "O=CC=O",
    "class.name": "0 (no)"
  }
]

Recorded test call requested for "CCCCCl" 0 (no)

Recorded test call requested for ClCC1CO1 (stereo unspecified) 0 (no)

Recorded test call requested for "O=C1C=CC(=O)C=C1" 1 (yes)

Recorded test call requested for "CCCCCCCCOC(=O)c1ccccc1C(=O)OCCCCCCCC" 0 (no)

Recorded test call requested for "O=C/C=C/c1ccccc1" 0 (no)

Recorded test call requested for "CC(C)(C)c1cc(O)ccc1O" 1 (yes)

Recorded test call requested for "C=CCN=C=S" 0 (no)

Recorded test call requested for "[Cl-].[Cl-].[Hg+2]" 1 (yes)

* * *

System: KB-3-1
protocol.summary: Cytotoxic Profiling of Annotated Libraries Using Quantitative High-Throughput Screening (AID 1296008); also: nearly all actives have a fitted effect of over 60% in size
test.context: Five cell lines viability, CellTiter-Glo ATP luminescence, 48-72 h
Inconclusive results are not listed. Activity calls are given as the source filed them. Calls come from the whole dose curve; as a rule, active = well fitted inhibition curve with a large enough effect; inconclusive = small, poorly fitted or top-dose-only effect; inactive = flat fitted curve, though single readings scatter.
Lab note: assign the record to one of 1 = active, 0 = inactive

[
  {
    "compound": "CCCCCCn1c(=O)c(C(=O)Nc2ccc(C(=O)OCCC)cc2)c(O)c2ccccc21",
    "class.name": 0
  },
  {
    "compound": "Oc1ccc2c3c1O[C@H]1[C@H](N(CCCl)CCCl)CC[C@@]4(O)[C@@H](C2)N(CC2CC2)CC[C@]314",
    "class.name": 0
  },
  {
    "compound": "COc1cc(C)[nH]c(=O)c1CNC(=O)c1c(C)n([C@H](C)C2CCOCC2)c2ccccc12",
    "class.name": 0
  },
  {
    "compound": "COC1CC(=O)C23C(=O)NC(CC(C)C)C2C(C)=C(C)C(OO)C3/C=C(\\C)CCC(O)C1O (configuration not stated)",
    "class.name": 0
  },
  {
    "compound": "CCN1C[C@]2(COC(=O)c3ccccc3N3C(=O)C[C@H](C)C3=O)CC[C@H](OC)[C@@]34[C@@H]5C[C@H]6[C@H](OC)[C@@H]5[C@](O)(C[C@@H]6OC)[C@](O)([C@@H](OC)[C@H]23)[C@@H]14",
    "class.name": 0
  },
  {
    "compound": "COC(=O)C1(C)CCC(O)C2(C)c3c(O)cc(C(C)C)cc3C(O)C(OC(C)=O)C12 (configuration not stated)",
    "class.name": 0
  },
  {
    "compound": "C=C(C)[C@H]1O[C@H]2CC[C@@]3(C)[C@@](O)(CC[C@H]4[C@@H]5OC(C)(C)[C@H]6C[C@@H]7C(=C)Cc8c(Cl)cc9[nH]c(c5c9c8[C@@]76O)[C@@]43C)[C@]23O[C@@H]3[C@H]1O",
    "class.name": 0
  },
  {
    "compound": "COC1CC(OC2CCC3(C=O)C(CCC4C3CCC3(C)C(C5=CC(=O)OC5)CCC43O)C2)OC(C)C1OC1OC(CO)C(O)C(O)C1O (configuration not stated)",
    "class.name": 1
  },
  {
    "compound": "C=C[C@H]1[C@H](O[C@@H]2O[C@H](CO)[C@@H](O)[C@H](O)[C@H]2O)OC=C2C(=O)OCC[C@H]21",
    "class.name": 0
  },
  {
    "compound": "C=C(CO)C(=O)O[C@H]1C/C(C)=C/CC/C(CO)=C/[C@H]2OC(=O)C(=C)[C@H]12",
    "class.name": 0
  }
]

Recorded test call requested for O=C(O)c1ccnc2cc(C(OCCN3CCCCC3)c3ccccc3Cl)[nH]c12 (configuration not stated) 0

Recorded test call requested for CCN1CC2(COC)C3[C@@H](OC)C4C1C3(C1C[C@]3(O)[C@H](OC(=O)c5ccccc5)C1[C@]4(OC(C)=O)[C@@H](O)[C@@H]3OC)[C@H](OC)C[C@H]2O (some centres not stated) 0

Recorded test call requested for "COc1cc(C(=O)O[C@H]2[C@@H]3C=CO[C@@H](O[C@@H]4O[C@H](CO)[C@@H](O)[C@H](O)[C@H]4O)[C@@H]3[C@@]3(CO)O[C@@H]23)ccc1O" 0

* * *

Tested on: CP297
protocol.summary: qHTS profiling for inhibitors of Plasmodium falciparum proliferation (AID 504749); also: nearly all actives have a fitted effect of over 60% in size
test.context: P. falciparum in erythrocytes, SYBR Green DNA, 72 h; series mostly up to 28.7 µM
Records with an inconclusive call do not appear. Calls of active or inactive are those of the source. The call rests on the fitted dose curve; in most records, active means well fitted inhibition curve with a large enough effect; inconclusive means small, poorly fitted or top-dose-only effect; inactive means flat fitted curve, though single readings scatter.
Lab note: assign the record to one of 1 for active, -1 for inactive

Some entries whose results are on file:
[
  {
    "compound": "Cn1sc(Cl)cc1=O",
    "class.name": -1
  },
  {
    "compound": "N#CN",
    "class.name": -1
  },
  {
    "compound": "CC12NC(Cc3ccccc31)c1ccccc12 (stereo not drawn)",
    "class.name": 1
  }
]

Recorded test call requested for "CCCCCCCCOC(=O)c1ccccc1C(=O)OCCCCCCCC" -1

Recorded test call requested for "O=C1CCO1" -1

Recorded test call requested for "CC[N+](C)(CC)CCOC(=O)C(O)(c1ccccc1)c1ccccc1" -1

Recorded test call requested for "CC(C)(C)c1cc(O)ccc1O" 1

Recorded test call requested for O=C1CC[C@@]2(O)C3Cc4ccc(O)c5c4C2(CCN3CC2CC2)[C@H]1O5 (stereo partly drawn) -1

* * *

System: 3D7
protocol.summary: qHTS profiling for inhibitors of Plasmodium falciparum proliferation (AID 504749); also: nearly all actives have a fitted effect of over 60% in size; also: potency is read from the fitted curve at half-maximal effect
test.context: P. falciparum in erythrocytes, SYBR Green DNA, 72 h; series mostly up to 28.7 µM
Inconclusive results are not listed. Calls of active or inactive are those of the source. Calls come from the whole dose curve; as a rule, active = well fitted inhibition curve with a large enough effect; inconclusive = small, poorly fitted or top-dose-only effect; inactive = flat fitted curve, though single readings scatter.
observed.property: Potency

[
  {
    "compound": "CCC1(c2ccccc2)C(=O)NC(=O)NC1=O",
    "Potency": "inactive"
  },
  {
    "compound": "c1cc2c(c(NC3=NCCN3)c1)CCCC2",
    "Potency": "inactive"
  },
  {
    "compound": "COC1=CC=C2[C@H]3Cc4ccc(OC)c5c4[C@@]2(CCN3C)[C@H]1O5",
    "Potency": "inactive"
  },
  {
    "compound": "CCC(N)Cc1c[nH]c2ccccc12 (centres undefined)",
    "Potency": "inactive"
  },
  {
    "compound": "N#CN",
    "Potency": "inactive"
  }
]

Input CNC1(c2ccccc2Cl)CCCCC1=O (centres undefined) , output reported Potency. inactive

meta.source: PubChem BioAssay (NCATS)
